target: NS3/4A H77C strain (Hepatitis C virus genotype 1a, UniProt P27958, C1454S); construct: DNA encoding the recombinant HCV NS3/4A protease complex (amino acids 1027 to 1711) for these strains; His tag (inferred from pET21b vector and Ni-NTA purification); assay: Recombinant HCV NS3/4A protease complex FRET peptide assay, H77C strain
Sequence (P27958 1027-1657 C1454S): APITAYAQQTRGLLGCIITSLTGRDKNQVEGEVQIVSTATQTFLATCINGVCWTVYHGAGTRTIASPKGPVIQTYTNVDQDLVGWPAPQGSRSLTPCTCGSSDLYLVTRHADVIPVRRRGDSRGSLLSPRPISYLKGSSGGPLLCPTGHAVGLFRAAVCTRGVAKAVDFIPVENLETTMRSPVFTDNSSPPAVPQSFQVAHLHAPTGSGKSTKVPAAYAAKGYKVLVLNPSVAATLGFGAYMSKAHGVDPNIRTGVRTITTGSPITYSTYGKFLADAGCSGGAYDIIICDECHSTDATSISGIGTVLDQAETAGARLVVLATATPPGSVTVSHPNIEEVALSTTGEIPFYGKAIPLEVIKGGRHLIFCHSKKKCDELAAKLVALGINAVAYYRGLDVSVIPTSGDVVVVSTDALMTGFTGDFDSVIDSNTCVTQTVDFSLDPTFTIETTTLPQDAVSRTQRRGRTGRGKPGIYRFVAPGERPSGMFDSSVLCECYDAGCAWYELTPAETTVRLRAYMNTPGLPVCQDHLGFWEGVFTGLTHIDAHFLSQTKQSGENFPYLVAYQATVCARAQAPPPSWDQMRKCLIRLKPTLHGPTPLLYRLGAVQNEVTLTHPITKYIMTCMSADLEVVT
Sequence (P27958 1658-1714 partner, looked up, stated change not applied): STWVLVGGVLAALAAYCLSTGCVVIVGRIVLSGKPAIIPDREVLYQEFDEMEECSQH
parameter: pIC50
Convention used: pIC50 is expressed as -log10 of the molar concentration.

Incoming: Name the recorded pIC50 for C=CC1C[C@]1(NC(=O)[C@@H]1C[C@@H](OC(=O)Nc2ccccc2-c2ccccc2)CN1C(=O)[C@@H](NC(=O)OC(C)(C)C)C(C)(C)C)C(=O)NS(=O)(=O)C1CC1 (stereo partly shown) .
Outgoing: 7.96

* * *

Below, each entry is listed with its recorded IC50.
target: HCV NS3/4A protease complex (UniProt P27958, C1454S/C1711G, species not given); construct: fused on or other part: Three-lysine solubilising tail at the C-terminus of NS4A; experiment: Recombinant HCV NS3/4A protease complex FRET peptide assay (strain not stated); assay type: biochemical; details: HCV NS3/4A protease enzyme assay, read-out: IC50 range

* C=CC1C[C@]1(NC(=O)[C@@H]1C[C@@H](OC(=O)Nc2ccccc2C(=O)OC)CN1C(=O)[C@@H](NC(=O)OC(C)(C)C)C(C)(C)C)C(=O)NS(=O)(=O)C1CC1 (stereo partly shown) [Compound 30] | < 100 nM
* C=CC1C[C@]1(NC(=O)[C@@H]1C[C@@H](OC(=O)Nc2ccccc2N2CCCCC2)CN1C(=O)[C@@H](NC(=O)OC(C)(C)C)C(C)(C)C)C(=O)NS(=O)(=O)C1CC1 (stereo partly shown) [Compound 90] | < 100 nM
* C=CC1C[C@]1(NC(=O)[C@@H]1C[C@@H](OC(=O)Nc2c(C)cccc2CC)CN1C(=O)[C@@H](NC(=O)OC(C)(C)C)C(C)(C)C)C(=O)NS(=O)(=O)C1CC1 (stereo partly shown) [Compound 61] | 1000 to 10000 nM
* C=CC1C[C@]1(NC(=O)[C@@H]1C[C@@H](OC(=O)Nc2ccc(F)c(F)c2F)CN1C(=O)[C@@H](NC(=O)OC(C)(C)C)C(C)(C)C)C(=O)NS(=O)(=O)C1CC1 (stereo partly shown) [Compound 16] | 100 to 1000 nM
* C=CC1C[C@]1(NC(=O)[C@@H]1C[C@@H](OC(=O)Nc2ccccc2-n2cccn2)CN1C(=O)[C@@H](NC(=O)OC(C)(C)C)C(C)(C)C)C(=O)NS(=O)(=O)C1CC1 (stereo partly shown) [Compound 89] | < 100 nM
* C=CC1C[C@]1(NC(=O)[C@@H]1C[C@@H](OC(=O)Nc2ncccc2C(=O)OCC)CN1C(=O)[C@@H](NC(=O)OC(C)(C)C)C(C)(C)C)C(=O)NS(=O)(=O)C1CC1 (stereo partly shown) [Compound 72] | < 100 nM
* C=CC1C[C@]1(NC(=O)[C@@H]1C[C@@H](OC(=O)Nc2ccccc2C(=O)OCCCC)CN1C(=O)[C@@H](NC(=O)OC(C)(C)C)C(C)(C)C)C(=O)NS(=O)(=O)C1CC1 (stereo partly shown) [Compound 64] | < 100 nM
* C=CC1C[C@]1(NC(=O)[C@@H]1C[C@@H](OC(=O)Nc2ccccc2/C(=N/O)c2ccccc2)CN1C(=O)[C@@H](NC(=O)OC(C)(C)C)C(C)(C)C)C(=O)NS(=O)(=O)C1CC1 (single isomer, unassigned) [Compound 77a] | 100 to 1000 nM
* C=CC1C[C@]1(NC(=O)[C@@H]1C[C@@H](OC(=O)Nc2cccc(SC)c2)CN1C(=O)[C@@H](NC(=O)OC(C)(C)C)C(C)(C)C)C(=O)NS(=O)(=O)C1CC1 (stereo partly shown) [Compound 37] | < 100 nM

Incoming: Name the recorded IC50 for C=C[C@@H]1C[C@]1(NC(=O)[C@@H]1C[C@@H](OC(=O)Nc2ccccc2C(=O)OCC)CN1C(=O)[C@@H](NC(=O)OC)C(C)(C)C)C(=O)NS(=O)(=O)C1CC1 [Compound 110] .
Outgoing: < 100 nM

* * *

target: HCV NS3/4A protease complex (UniProt P27958, C1454S/C1711G, species not given); construct: fused on or other part: Three-lysine solubilising tail at the C-terminus of NS4A; assay: Recombinant HCV NS3/4A protease complex FRET peptide assay (strain not stated); format: biochemical; details: HCV NS3/4A protease enzyme assay, read-out: IC50 range
pIC50: −log10 of the molar value.
parameter: pIC50

Example compounds with recorded pIC50:
- C=CC1C[C@]1(NC(=O)[C@@H]1C[C@@H](OC(=O)Nc2cccc(C)c2C)CN1C(=O)[C@@H](NC(=O)OC(C)(C)C)C(C)(C)C)C(=O)NS(=O)(=O)C1CC1 (stereo partly drawn) [Compound 42]: > 7.00
- C=CC1C[C@]1(NC(=O)[C@@H]1C[C@@H](OC(=O)NCc2ccccc2C)CN1C(=O)[C@@H](NC(=O)OC(C)(C)C)C(C)(C)C)C(=O)NS(=O)(=O)C1CC1 (stereo partly drawn) [Compound 2]: 6.00 to 7.00

Incoming: Name the recorded pIC50 for C=CC1C[C@]1(NC(=O)[C@@H]1C[C@@H](OC(=O)Nc2ccccc2C(=O)c2ccccc2)CN1C(=O)[C@@H](NC(=O)OC(C)(C)C)C(C)(C)C)C(=O)NS(=O)(=O)C1CC1 (stereo partly drawn) [Compound 74] .
Outgoing: > 7.00
